System: Nrf2 (NQO1 activity in BEAS-2B cells)
experimentSummary: BEAS-2B NQO1 MTT Assay
Assay type: cell-based
conditionLabel: Homo sapiens, 48 hours, NQO1 specific activity induction, read-out: EC50
pEC50: −log10 of the molar value.
experimentalReadout: pEC50

Entry Cc1ccc([C@@H](c2ccc3c(nnn3C)c2C)C(C)(C)C(=O)O)cc1CN1Cc2nc(O)ccc2O[C@H](C(F)(F)F)C1 [Example 19] ; pEC50 = > 9.00

Just so you know, measured pEC50 for Cc1ccc([C@@H](c2ccc3c(nnn3C)c2C)C(C)(C)C(=O)O)cc1CN1Cc2nc(O)ccc2O[C@@H](C(C)C)C1 [Example 16] came out at 8.00 to 9.00

Entry CC[C@H]1CN(Cc2cc([C@H](CC(=O)O)c3ccc4c(nnn4C)c3C)ccc2C)Cc2nc(O)ccc2O1 [Example 12] — recorded pEC50 = 5.00 to 6.00

Measured pEC50 of Cc1ccc([C@@H](c2ccc3c(nnn3C)c2C)C(C)(C)C(=O)O)cc1CN1Cc2nc(O)ccc2OC(C)(C)C1 [Example 17] : 8.00 to 9.00

compound CC[C@]1(C)CN(Cc2cc([C@@H](CC(=O)O)c3ccc4c(nnn4C)c3C)ccc2C)Cc2nc(O)ccc2O1 [Example 26] , pEC50 observed: 6.00 to 7.00

pEC50 reading for Cc1ccc([C@@H](c2ccc3c(nnn3C)c2C)C(C)(C)C(=O)O)cc1CN1Cc2nc(O)ccc2O[C@@H](C)C1 [Example 23] : 7.00 to 8.00

Data point: Cc1ccc([C@@H](CC(=O)O)c2ccc3c(nnn3C)c2C)cc1CN1Cc2nc(O)ccc2O[C@@H](C(C)C)C1 [Example 2] ; pEC50 = 6.00 to 7.00

###

Record form. Attribute: MRT. Fill in for each entry.
experimentSummary: Rat PK Study
Format: in vivo
conditionLabel: plasma, nominal 1 mg/kg 30-minute intravenous infusion, read-out: Rat Pharmacokinetics MRT
Report field: quantity (unit follows the number).

Record CC[C@@H]1CN(Cc2cc([C@@H](CC(=O)O)c3ccc4c(nnn4C)c3C)ccc2C)Cc2nc(O)ccc2O1 [Example 1] . Reported MRT: 6.5 h

Data point: CC[C@@H]1CN(Cc2cc([C@@H](CC(=O)O)c3ccc4c(nnn4C)c3C)ccc2C)Cc2ncccc2O1 [Compound A, reference compound] ; MRT = 4 h

###

experimentSummary: Monkey PK Study
Format: in vivo
conditionLabel: male, plasma; cynomolgus monkey, nominal 1 mg/kg 60-minute intravenous infusion, cassette; read-out: Monkey Pharmacokinetics MRT
So I've got a bunch of molecules here, and I need their MRT values.
Quick note: give the figure in h, leave out the unit.

GET /value?item= CC[C@@H]1CN(Cc2cc([C@@H](CC(=O)O)c3ccc4c(nnn4C)c3C)ccc2C)Cc2ncccc2O1 [Compound A, reference compound] &field=MRT returns 1.6

Value of MRT reported for the molecule CC[C@@H]1CN(Cc2cc([C@@H](CC(=O)O)c3ccc4c(nnn4C)c3C)ccc2C)Cc2nc(O)ccc2O1 [Example 1] is 18

###

Exercise: for every item that follows, state its recorded pEC50.
Test system: Nrf2 (NQO1 activity in BEAS-2B cells)
experimentSummary: BEAS-2B NQO1 MTT Assay
Type: cell-based
conditionLabel: Homo sapiens, 48 hours, NQO1 specific activity induction, read-out: EC50
pEC50: −log10 of the molar value.

Per the record, `Cc1ccc([C@H](CC(=O)O)c2ccc3c(nnn3C)c2C)cc1CN1Cc2nc(O)ccc2OC(C)(C)C1` has pEC50 of 6.00 to 7.00

Briefly, pEC50 measured for `Cc1ccc([C@@H](c2ccc3c(nnn3C)c2C)C(C)(C)C(=O)O)cc1CN1Cc2nc(O)ccc2O[C@H](C(C)C)C1` : > 9.00

pEC50 reading for `Cc1ccc([C@H](CC(=O)O)c2ccc3c(nnn3C)c2C)cc1CN1Cc2nc(O)ccc2O[C@H](C(C)C)C1` : 7.00 to 8.00

Lookup result for `CC[C@H]1CN(Cc2cc([C@@H](CC(=O)O)c3ccc4c(nnn4C)c3C)ccc2C)Cc2nc(O)ccc2O1` ; measured pEC50: 6.00 to 7.00

Entry `Cc1ccc([C@@H](CC(=O)O)c2ccc3c(nnn3C)c2C)cc1CN1Cc2nc(O)ccc2OC2(CCC2)C1` — recorded pEC50 = 7.00 to 8.00

Form: molecule = `Cc1ccc([C@@H](c2ccc3c(nnn3C)c2C)C(C)(C)C(=O)O)cc1CN1Cc2nc(O)ccc2O[C@@H](C(F)(F)F)C1` ; pEC50 = 7.00 to 8.00

Sure, the documented pEC50 for `CC[C@H]1CN(Cc2cc([C@@H](c3ccc4c(nnn4C)c3C)C(C)(C)C(=O)O)ccc2C)Cc2nc(O)ccc2O1` is 8.00 to 9.00

###

Tested on: Nrf2 (NQO1 activity in BEAS-2B cells)
experimentSummary: BEAS-2B NQO1 MTT Assay
Format: cell-based
conditionLabel: Homo sapiens, 48 hours, NQO1 specific activity induction, read-out: EC50
Description: NAD(P)H:quinone oxidoreductase 1 (NQO1), also called DT diaphorase, is a homodimeric FAD-containing enzyme that catalyzes obligatory NAD(P)H-dependent two-electron reductions of quinones and protects cells against the toxic and neoplastic effects of free radicals and reactive oxygen species arising from one-electron reductions. […] On day one, frozen BEAS-2B cells (ATCC) were thawed in a water bath, counted, and re-suspended at a concentration of 250,000 cells/mL. […]
I'd be grateful if you could share measured EC50 for these entries.

Known value: Nrf2 (NQO1 activity in BEAS-2B cells) EC50 of the compound `Cc1ccc([C@@H](CC(=O)O)c2ccc3c(nnn3C)c2C)cc1CN1Cc2nc(O)ccc2O[C@H](C)C1` equals 10 to 100 nM

Param item: `Cc1ccc([C@@H](CC(=O)O)c2ccc3c(nnn3C)c2C)cc1CN1Cc2nc(O)ccc2O[C@H](C(F)(F)F)C1` ; param system: Nrf2 (NQO1 activity in BEAS-2B cells); output EC50: 10 to 100 nM

Considering `CC[C@@H]1CN(Cc2cc([C@@H](CC(=O)O)c3ccc4c(nnn4C)c3C)ccc2C)Cc2nc(O)ccc2O1` , its EC50 with Nrf2 (NQO1 activity in BEAS-2B cells) was recorded as 10 to 100 nM

Simply: `Cc1ccc([C@@H](CC(=O)O)c2ccc3c(nnn3C)c2C)cc1CN1Cc2nc(O)ccc2O[C@@H](C(F)(F)F)C1` , Nrf2 (NQO1 activity in BEAS-2B cells), EC50 = 1000 to 10000 nM

Record for `Cc1ccc([C@H](CC(=O)O)c2ccc3c(nnn3C)c2C)cc1CN1Cc2nc(O)ccc2O[C@@H](C(C)C)C1` under target or system Nrf2 (NQO1 activity in BEAS-2B cells): EC50 reported as 100 to 1000 nM

###

studyTarget: human PXR (Homo sapiens, UniProt O75469)
Construct: expression vectors containing full length human PXR
experimentSummary: Human PXR Activation Assay
conditionLabel: HepG2 transfected with human PXR and CYP3A4 promoter luciferase, 24 h
experimentalReadout: EC50 (µM)
Quick note: give the figure in µM, leave out the unit.

EC50 measured on CC[C@@H]1CN(Cc2cc([C@@H](CC(=O)O)c3ccc4c(nnn4C)c3C)ccc2C)Cc2ncccc2O1 [Compound A, reference compound] = 25

###

Could you please report measured EC50 for the items listed next?
Tested on: Nrf2 (NQO1 activity in BEAS-2B cells)
experimentSummary: BEAS-2B NQO1 MTT Assay
Assay type: cell-based
conditionLabel: Homo sapiens, 48 hours, NQO1 specific activity induction, read-out: EC50

`Cc1ccc([C@@H](CC(=O)O)c2ccc3c(nnn3C)c2C)cc1CN1Cc2nc(O)ccc2OC(C)(C)C1` yielded EC50 of 10 to 100 nM

Entry `CC[C@@H]1CN(Cc2cc([C@@H](CC(=O)O)c3ccc4c(nnn4C)c3C)ccc2C)Cc2nc(O)c(F)cc2O1` , EC50 reported as 1 to 10 nM

Consider `Cc1ccc([C@@H](CC(=O)O)c2ccc3c(nnn3C)c2C)cc1CN1Cc2nc(O)ccc2O[C@H](C(C)C)C1` . Its measured EC50 is 1 to 10 nM

Looking up `Cc1ccc([C@@H](c2ccc3c(nnn3C)c2C)C(C)(C)C(=O)O)cc1CN1Cc2nc(O)ccc2O[C@H](C)C1` , I see its EC50 listed as 1 to 10 nM

###

experimentSummary: Rat PK Study
Type: in vivo
conditionLabel: plasma, nominal 1 mg/kg 30-minute intravenous infusion, read-out: Rat Pharmacokinetics Total Clearance
experimentalReadout: clearance (L/h/kg)
Just the number in L/h/kg, nothing appended.

clearance in this record for CC[C@@H]1CN(Cc2cc([C@@H](CC(=O)O)c3ccc4c(nnn4C)c3C)ccc2C)Cc2ncccc2O1 [Compound A, reference compound] : 0.114

Query `CC[C@@H]1CN(Cc2cc([C@@H](CC(=O)O)c3ccc4c(nnn4C)c3C)ccc2C)Cc2nc(O)ccc2O1` yields clearance of 0.312

###

studyTarget: human PXR (Homo sapiens, UniProt O75469)
Construct: expression vectors containing full length human PXR; expressed in transfected cells; host or cells: HepG2 (human hepatocellular carcinoma line), transient transfection with FuGENE
Sequence (O75469 1-434): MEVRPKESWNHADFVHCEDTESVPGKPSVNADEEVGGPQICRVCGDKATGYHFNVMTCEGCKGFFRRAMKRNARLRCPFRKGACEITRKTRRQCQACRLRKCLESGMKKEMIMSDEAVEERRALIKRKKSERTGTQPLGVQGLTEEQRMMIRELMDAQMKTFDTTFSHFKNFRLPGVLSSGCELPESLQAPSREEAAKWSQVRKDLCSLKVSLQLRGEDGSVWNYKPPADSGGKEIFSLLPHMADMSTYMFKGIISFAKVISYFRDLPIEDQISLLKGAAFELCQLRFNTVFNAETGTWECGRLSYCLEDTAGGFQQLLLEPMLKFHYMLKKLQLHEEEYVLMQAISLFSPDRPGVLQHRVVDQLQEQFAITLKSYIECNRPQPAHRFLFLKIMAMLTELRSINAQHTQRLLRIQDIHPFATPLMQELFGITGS
experimentSummary: Human PXR Activation Assay
Format: cell-based
conditionLabel: human; percent maximum induction compared to 10 μM rifampicin
experimentalReadout: Emax at 24 h (%)
Enter your answer as a number in %; do not include the unit.

In plain terms, `CC[C@@H]1CN(Cc2cc([C@@H](CC(=O)O)c3ccc4c(nnn4C)c3C)ccc2C)Cc2nc(O)ccc2O1` has a documented Emax at 24 h of 10

Lab book: Emax at 24 h of CC[C@@H]1CN(Cc2cc([C@@H](CC(=O)O)c3ccc4c(nnn4C)c3C)ccc2C)Cc2ncccc2O1 [Compound A, reference compound] noted as 56
